Molecular target: UniProtKB B7T1F4

cpd_smiles	Kd (µM)
O[Si](O)(O)O	2.9

* * *

Target: PtSIT1 (Phaeodactylum tricornutum, UniProt B7T1F4, Q104A)
Sequence (B7T1F4 1-512 Q104A): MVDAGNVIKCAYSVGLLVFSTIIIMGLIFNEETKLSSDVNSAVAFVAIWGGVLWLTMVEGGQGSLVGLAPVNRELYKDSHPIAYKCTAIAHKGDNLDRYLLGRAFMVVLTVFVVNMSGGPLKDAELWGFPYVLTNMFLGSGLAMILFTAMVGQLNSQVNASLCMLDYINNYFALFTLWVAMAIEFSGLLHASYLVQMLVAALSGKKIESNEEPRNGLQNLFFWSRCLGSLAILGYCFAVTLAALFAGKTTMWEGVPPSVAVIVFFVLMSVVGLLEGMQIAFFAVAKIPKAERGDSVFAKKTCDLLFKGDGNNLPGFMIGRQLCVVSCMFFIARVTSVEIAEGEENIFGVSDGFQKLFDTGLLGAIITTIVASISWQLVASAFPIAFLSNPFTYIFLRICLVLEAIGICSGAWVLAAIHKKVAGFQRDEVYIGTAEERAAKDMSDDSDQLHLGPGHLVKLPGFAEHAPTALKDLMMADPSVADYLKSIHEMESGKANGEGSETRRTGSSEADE
Assay: biochemical
pKd: −log10 of the molar value.

compound	pKd
O[Si](O)(O)O [silicic acid]	4.59

* * *

Target: PtSIT1 (Phaeodactylum tricornutum, UniProt B7T1F4, Q321A)
Sequence (B7T1F4 1-512 Q321A): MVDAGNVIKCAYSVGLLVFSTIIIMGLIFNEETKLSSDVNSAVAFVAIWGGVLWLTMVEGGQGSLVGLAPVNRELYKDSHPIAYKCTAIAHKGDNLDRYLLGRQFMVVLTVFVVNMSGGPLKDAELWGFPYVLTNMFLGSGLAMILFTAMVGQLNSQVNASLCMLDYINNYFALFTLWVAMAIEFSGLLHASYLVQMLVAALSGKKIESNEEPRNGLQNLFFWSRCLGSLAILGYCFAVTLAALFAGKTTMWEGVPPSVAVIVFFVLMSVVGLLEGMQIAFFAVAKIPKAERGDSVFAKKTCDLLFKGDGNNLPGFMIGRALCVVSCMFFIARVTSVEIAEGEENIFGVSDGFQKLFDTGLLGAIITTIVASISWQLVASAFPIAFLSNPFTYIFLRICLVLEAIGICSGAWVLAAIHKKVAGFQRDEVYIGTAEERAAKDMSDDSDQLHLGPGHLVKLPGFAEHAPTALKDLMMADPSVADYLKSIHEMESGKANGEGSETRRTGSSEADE
Assay: biochemical
parameter_measured: Kd

molecule	assay_target	parameter_measured	recorded_result
O[Si](O)(O)O [silicic acid]	PtSIT1 (Phaeodactylum tricornutum, UniProt B7T1F4, Q321A)	Kd	13.3 µM
